- testSystem: Ba/F3 L858R/T790M/C797S EGFR triple mutant cell line (Homo sapiens, UniProt P00533, T790M/C797S/L858R, cells depend on it)
- Sequence (P00533 whole entry T790M/C797S/L858R): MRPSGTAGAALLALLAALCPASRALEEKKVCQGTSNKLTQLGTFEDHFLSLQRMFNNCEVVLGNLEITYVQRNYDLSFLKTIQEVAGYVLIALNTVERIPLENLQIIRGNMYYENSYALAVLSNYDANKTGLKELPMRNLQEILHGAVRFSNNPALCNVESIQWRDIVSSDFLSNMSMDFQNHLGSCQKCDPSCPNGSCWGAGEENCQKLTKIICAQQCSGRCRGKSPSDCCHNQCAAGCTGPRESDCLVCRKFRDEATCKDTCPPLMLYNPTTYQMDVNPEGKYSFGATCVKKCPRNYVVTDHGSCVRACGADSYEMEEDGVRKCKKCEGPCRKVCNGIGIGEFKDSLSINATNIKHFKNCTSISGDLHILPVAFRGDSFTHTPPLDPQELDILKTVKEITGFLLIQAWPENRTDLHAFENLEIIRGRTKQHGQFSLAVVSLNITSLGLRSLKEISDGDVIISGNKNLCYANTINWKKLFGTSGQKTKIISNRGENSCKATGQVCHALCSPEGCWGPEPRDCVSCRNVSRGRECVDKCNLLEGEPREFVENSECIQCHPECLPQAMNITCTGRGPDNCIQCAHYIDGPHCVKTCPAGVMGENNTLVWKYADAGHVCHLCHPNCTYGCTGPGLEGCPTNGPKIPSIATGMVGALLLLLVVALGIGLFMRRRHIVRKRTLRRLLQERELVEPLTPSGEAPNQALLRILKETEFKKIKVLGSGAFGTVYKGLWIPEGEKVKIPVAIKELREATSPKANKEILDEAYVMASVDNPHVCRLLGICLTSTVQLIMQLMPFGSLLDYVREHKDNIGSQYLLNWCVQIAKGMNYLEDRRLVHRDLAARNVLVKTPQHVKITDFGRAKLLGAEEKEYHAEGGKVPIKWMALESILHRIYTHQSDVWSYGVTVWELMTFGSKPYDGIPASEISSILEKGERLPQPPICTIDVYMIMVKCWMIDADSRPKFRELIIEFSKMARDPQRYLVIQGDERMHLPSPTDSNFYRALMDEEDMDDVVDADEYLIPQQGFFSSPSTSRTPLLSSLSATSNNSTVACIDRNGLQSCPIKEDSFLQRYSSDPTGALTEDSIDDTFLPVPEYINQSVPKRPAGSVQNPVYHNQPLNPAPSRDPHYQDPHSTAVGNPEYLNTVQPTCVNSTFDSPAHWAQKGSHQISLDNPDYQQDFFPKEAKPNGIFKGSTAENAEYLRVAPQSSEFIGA
- assayOverview: Cell proliferation inhibition experiment (CellTiter-Glo), Ba/F3 L858R/T790M/C797S
- Type: cell-based
- setupConditions: 72 hours, Cell Titer-Glo, read-out: Ba/F3 (L858R/T790M/C797S) IC50
observable: log10 of GI50 (log10 of the value in nM)
All values: base-10 log of GI50 in nM.

Given COc1cc(N2CCOCC2)c(-n2cccn2)cc1Nc1ncc(Br)c(Nc2ccc3nccnc3c2P(C)(C)=O)n1 , state its recorded log10 of GI50.
2.90

Endpoint output: log10 of GI50 of COc1cc(N2CCC3C(C2)CN3C)c(-c2cnn(C)c2)cc1Nc1ncc(Br)c(Nc2ccc3nccnc3c2P(C)(C)=O)n1 (racemic) . Value?
0.45

Can you look up the measured log10 of GI50 of COc1cc(N2CCC3(CCN(C)CC3)CC2)c(-c2cnn(C)c2)cc1Nc1ncc(Br)c(Nc2cc3c(cc2N(C)S(C)(=O)=O)CC3)n1 for me?
1.32

Which log10 of GI50 reading was recorded for the compound CCN1CCN(c2cc(OC)c(Nc3ncc(Br)c(Nc4ccc5nccnc5c4P(C)(C)=O)n3)cc2-c2cnn(C)c2)CC1 ?
0.62

// returns reported log10 of GI50 for input COc1cc(N2CCOCC2)c(-c2cnn(C)c2)cc1Nc1ncc(Br)c(Nc2ccccc2NS(=O)(=O)C2CC2)n1
1.16

Quick one: log10 of GI50 of CN1CCN(c2ncc(Nc3ncc(Br)c(Nc4ccc5nccnc5c4P(C)(C)=O)n3)cc2-c2cnn(C)c2)CC1 ?
2.54

State the recorded log10 of GI50 for this entry: [2H]C1([2H])OC([2H])([2H])C([2H])([2H])N(c2cc(OC)c(Nc3ncc(C)c(Nc4ccc5nccnc5c4P(C)(C)=O)n3)cc2-c2cnn(C)c2)C1([2H])[2H]
0.71

# log10 of GI50 lookup, item COc1cc(N2CCC(OCC3CC3)CC2)c(-c2cnn(C)c2)cc1Nc1ncc(Br)c(Nc2ccc3ncccc3c2P(C)(C)=O)n1
1.05

// query log10 of GI50 value for entry COCCN(C)c1cc(OC)c(Nc2ncc(Br)c(Nc3ccc4nccnc4c3P(C)(C)=O)n2)cc1-c1cnn(C)c1
1.14

What does the record list as log10 of GI50 for COc1cc(N2CCOCC2)c(-c2cnn(C)c2)cc1Nc1ncc(Br)c(Nc2ccc3c(c2P(C)(C)=O)CC3)n1 ?
0.97

Please look up its log10 of GI50: COc1cc(N2CCN(C(C)C)C(CF)C2)c(-c2cnn(C)c2)cc1Nc1ncc(Br)c(Nc2ccc3nccnc3c2P(C)(C)=O)n1 (stereo not shown)
0.92

What does the record list as log10 of GI50 for COc1cc(N2CCC(N3CCN(C)CC3)C(F)C2)c(-c2cnn(C)c2)cc1Nc1ncc(Br)c(Nc2ccccc2N(C)S(=O)(=O)C2CC2)n1 (stereo not shown) ?
1.39

Using the record for COc1cc(N2CCC(N3CCN(C)CC3)CC2)c(-c2cnn(C)c2)cc1Nc1ncc(F)c(Nc2ccc3nccnc3c2P(C)(C)=O)n1 , report its log10 of GI50.
2.38

Suppose we examine the compound COCCN1CCN(c2cc(OC)c(Nc3ncc(Br)c(Nc4ccccc4NS(C)(=O)=O)n3)cc2-c2cnn(C)c2)CC1 ; what log10 of GI50 value has been reported?
1.48

Dear colleague, I am looking for the recorded log10 of GI50 of the following compound: COc1cc(N2CCN3CCCC3C2)c(-c2cnn(C)c2)cc1Nc1ncc(Br)c(Nc2ccc3nccnc3c2P(C)(C)=O)n1 (stereo not shown)
0.95

I'd like to know its log10 of GI50. The compound in question is COc1cc(N2CCN(CCF)CC2)c(-c2cnn(C)c2)cc1Nc1ncc(Br)c(Nc2ccc3nccnc3c2P(C)(C)=O)n1
0.70

Reported log10 of GI50 for COc1cc(N2CCC(N3CCN(C)CC3)CC2)ccc1Nc1ncc(Cl)c(Nc2ccccc2P(C)(C)=O)n1 [Brigatinib, reference compound] : what is it?
2.51

log10 of GI50 lookup needed for COc1cc(N2CC3CC2CN3C)c(-c2cnn(C)c2)cc1Nc1ncc(Br)c(Nc2ccc3nccnc3c2P(C)(C)=O)n1 (stereo not shown) , thanks.
2.35

// query log10 of GI50 value for entry Cc1nc(N2CCOCC2)c(-c2cnn(C)c2)cc1Nc1ncc(Br)c(Nc2ccc3nccnc3c2P(C)(C)=O)n1
1.51

Given the entry COc1cc(N2CCC(N3CCOCC3)CC2)c(-c2cnn(C)c2)cc1Nc1ncc(Br)c(Nc2ccc3nccnc3c2P(C)(C)=O)n1 [compound 129] , report its measured log10 of GI50.
0.43

Given COc1cc(N2CCC(C)(O)CC2)c(-c2cnn(C)c2)cc1Nc1ncc(Br)c(Nc2ccc3nccnc3c2P(C)(C)=O)n1 , state its recorded log10 of GI50.
0.46

Which log10 of GI50 reading was recorded for the compound COc1cc(N2CCN(C)C(C)(C)C2)c(-c2cnn(C)c2)cc1Nc1ncc(Br)c(Nc2ccc3nccnc3c2P(C)(C)=O)n1 ?
1.39

So what does the record say about log10 of GI50 for COc1cc(N2CCC3(CCN(C)CC3)CC2)c(-c2cnn(C)c2)cc1Nc1ncc(Br)c(Nc2ccccc2N(C)S(=O)(=O)C2CC2)n1 ?
1.43

Returns the measured log10 of GI50 for the input compound. Input: COc1cc(N2CCC3(CCN(CCF)CC3)CC2)c(-c2cnn(C)c2)cc1Nc1ncc(Br)c(Nc2ccc3ncccc3c2P(C)(C)=O)n1
0.56

Field request: log10 of GI50 | item: [2H]C([2H])([2H])N(c1cc(OC)c(Nc2ncc(C)c(Nc3ccc4nccnc4c3P(C)(C)=O)n2)cc1-c1cnn(C)c1)C([2H])([2H])[2H]
1.01
